system-name: T1, human sodium-dependent phosphate transporter 2B (NaPi2b) (human, UniProt O95436 1-690)
T1 construct: UniProt ID is given as 095436 [sic]; also called hNaPi2b; Hu NaPi2b
T1 sequence: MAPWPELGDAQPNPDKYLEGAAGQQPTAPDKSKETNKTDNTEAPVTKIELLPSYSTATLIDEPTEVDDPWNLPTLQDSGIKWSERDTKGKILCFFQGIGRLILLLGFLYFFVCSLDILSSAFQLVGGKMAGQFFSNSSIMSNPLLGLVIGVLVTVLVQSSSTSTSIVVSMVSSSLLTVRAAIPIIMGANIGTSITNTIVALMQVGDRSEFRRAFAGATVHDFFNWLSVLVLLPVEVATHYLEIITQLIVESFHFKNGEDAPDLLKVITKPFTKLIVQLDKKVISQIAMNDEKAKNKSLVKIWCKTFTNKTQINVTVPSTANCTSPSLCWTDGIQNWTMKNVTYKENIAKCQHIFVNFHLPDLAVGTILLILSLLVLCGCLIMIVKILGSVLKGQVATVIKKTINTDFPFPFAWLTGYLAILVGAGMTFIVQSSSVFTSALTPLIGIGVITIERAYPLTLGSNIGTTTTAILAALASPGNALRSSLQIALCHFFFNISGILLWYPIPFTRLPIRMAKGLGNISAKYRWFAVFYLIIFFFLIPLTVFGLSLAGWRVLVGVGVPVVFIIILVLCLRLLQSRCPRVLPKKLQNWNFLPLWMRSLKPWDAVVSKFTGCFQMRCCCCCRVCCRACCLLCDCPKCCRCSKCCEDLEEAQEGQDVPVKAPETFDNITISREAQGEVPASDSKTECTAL
experiment-notes: flow cytometry, IGROV-1 cells (endogenous NaPi2b)
Parameters: unit not given here
property-measured: Bmax
Write no unit; give the number alone.

binder	numeric-result
v29450 (H3L3) (antibody, human IgG1, kappa, V domains shown, Humanized IgG1/kappa) VH: QVQLVQSGAEVKKPGASVKMSCKASGFTFTSYNVHWVRQAPGQGLEWIAAISPGNGDLSYAQKFQGRATLTVDTSTSTAYMELSSLRSEDTAVYYCARGRTGMGAVDYWGQGTLVTVSS VL: DVQMTQSPSSLSASVGDRVTITCRASQDVYSYLNWYQQKPGKAVKLLIYYTSRLQSGVPSRFSGSGSGTDYTLTISSLQPEDIATYYCQQYNIFPWTFGQGTKLEIKR	43800

# input for lookup
Please list Bmax recorded for the binder v29453 (H4L2) (antibody, human IgG1, kappa, V domains shown, Humanized IgG1/kappa; clones CL_#21506 and CL_#21508) VH: QVQLVQSGAEVKKPGASVKMSCKASGFTFTSYNVHWVRQAPGQGLEWIAAISPGNGDLSYAQKFQGRATLTVDRSTSTAYMELSSLRSEDTAVYYCARGRTGMGAVDYWGQGTLVTVSS VL: DVQMTQSPSSLSASVGDRVTITCRASQDVYSYLNWYQQKPGKAVKLLIYYTSRLQSGVPSRFSGSGSGTDYTLTISSLQPEDFATYYCQQYNIFPWTFGQGTKLEIKR
44500
